Reference for the values: patent US4639433A

System: Staphylococcus epidermidis EPI1
Details: agar dilution
Quick reference: MIC of the listed items.
Write the value in µg/mL as a bare number.

# MOLECULE, MIC (µg/mL)
measured = [
    ("CCCCCCCCCC(=O)NC1(C)CC(OC2C(Oc3c4cc5cc3Oc3ccc(cc3Cl)C(O)C(NC(=O)C(CC(C)C)N(C)C(=O)CCCCCCCCC)C(=O)NC(CC(N)=O)C(=O)NC5C(=O)NC3C(=O)NC(C(=O)NC(C(=O)O)c5cc(O)cc(O)c5-c5cc3ccc5O)C(O)c3ccc(c(Cl)c3)O4)OC(CO)C(O)C2O)OC(C)C1O (stereo not drawn)", 32),
]

Lookup result for CNC(CC(C)C)C(=O)NC1C(=O)NC(CC(N)=O)C(=O)NC2C(=O)NC3C(=O)NC(C(=O)NC(C(=O)O)c4cc(O)cc(O)c4-c4cc3ccc4O)C(O)c3ccc(c(Cl)c3)Oc3cc2cc(c3OC2OC(CO)C(O)C(O)C2OC2CC(C)(NC(=O)C(NC(=O)OCc3ccccc3)C(C)C)C(O)C(C)O2)Oc2ccc(cc2Cl)C1O (stereo not drawn) ; measured MIC: 32

====

System: Staphylococcus aureus X400
Details: agar dilution
RECORDED_ENDPOINT: MIC
Field note: include the unit after the figure.

# MOLECULE, MIC
records = [
    ("CCCCCCCC(=O)NC1(C)CC(OC2C(Oc3c4cc5cc3Oc3ccc(cc3Cl)C(O)C(NC(=O)C(CC(C)C)N(C)C(=O)CCCCCCC)C(=O)NC(CC(N)=O)C(=O)NC5C(=O)NC3C(=O)NC(C(=O)NC(C(=O)O)c5cc(O)cc(O)c5-c5cc3ccc5O)C(O)c3ccc(c(Cl)c3)O4)OC(CO)C(O)C2O)OC(C)C1O (stereo not drawn) [Compound 5]", "32 µg/mL"),
]

Lookup result for CCCCCC(=O)NC1(C)CC(OC2C(Oc3c4cc5cc3Oc3ccc(cc3Cl)C(O)C3NC(=O)C(NC(=O)C5NC(=O)C(CC(N)=O)NC(=O)C(NC(=O)C(CC(C)C)NC)C(O)c5ccc(c(Cl)c5)O4)c4ccc(O)c(c4)-c4c(O)cc(O)cc4C(C(=O)O)NC3=O)OC(CO)C(O)C2O)OC(C)C1O (stereo not drawn) [Compound 2, N^van --(1-oxo-n-hexyl)vancomycin] ; measured MIC: 4 µg/mL

Lookup result for CCCCCCCCCCCCCC(=O)NC1(C)CC(OC2C(Oc3c4cc5cc3Oc3ccc(cc3Cl)C(O)C3NC(=O)C(NC(=O)C5NC(=O)C(CC(N)=O)NC(=O)C(NC(=O)C(CC(C)C)NC)C(O)c5ccc(c(Cl)c5)O4)c4ccc(O)c(c4)-c4c(O)cc(O)cc4C(C(=O)O)NC3=O)OC(CO)C(O)C2O)OC(C)C1O (stereo not drawn) [Compound 14, N^van --(1-oxo-n-tetradecyl)vancomycin] ; measured MIC: 2 µg/mL

Lookup result for CNC(CC(C)C)C(=O)NC1C(=O)NC(CC(N)=O)C(=O)NC2C(=O)NC3C(=O)NC(C(=O)NC(C(=O)O)c4cc(O)cc(O)c4-c4cc3ccc4O)C(O)c3ccc(c(Cl)c3)Oc3cc2cc(c3OC2OC(CO)C(O)C(O)C2OC2CC(C)(NC(=O)C(N)C(C)C)C(O)C(C)O2)Oc2ccc(cc2Cl)C1O (stereo not drawn) [Compound 33] ; measured MIC: 32 µg/mL

Lookup result for CCCC(=O)NC1(C)CC(OC2C(Oc3c4cc5cc3Oc3ccc(cc3Cl)C(O)C3NC(=O)C(NC(=O)C5NC(=O)C(CC(N)=O)NC(=O)C(NC(=O)C(CC(C)C)NC)C(O)c5ccc(c(Cl)c5)O4)c4ccc(O)c(c4)-c4c(O)cc(O)cc4C(C(=O)O)NC3=O)OC(CO)C(O)C2O)OC(C)C1O (stereo not drawn) [Compound 1, N^van --(1-oxo-n-butyl)vancomycin] ; measured MIC: 2 µg/mL

Lookup result for C=CCCCCCCCCC(=O)N(C)C(CC(C)C)C(=O)NC1C(=O)NC(CC(N)=O)C(=O)NC2C(=O)NC3C(=O)NC(C(=O)NC(C(=O)O)c4cc(O)cc(O)c4-c4cc3ccc4O)C(O)c3ccc(c(Cl)c3)Oc3cc2cc(c3OC2OC(CO)C(O)C(O)C2OC2CC(C)(N)C(O)C(C)O2)Oc2ccc(cc2Cl)C1O (stereo not drawn) [Compound 10, N^leu --(1-oxo-10-n-decenyl)vancomycin] ; measured MIC: 4 µg/mL

====

Tested on: Staphylococcus aureus X400
Details: agar dilution
Quick reference: MIC of the listed items.
Write the value in µg/mL as a bare number.

The following molecules have reported results that may help.
# MOLECULE, ASSAY_VALUE
records = [
    ("CCC(CC)C(=O)NC1(C)CC(OC2C(Oc3c4cc5cc3Oc3ccc(cc3Cl)C(O)C3NC(=O)C(NC(=O)C5NC(=O)C(CC(N)=O)NC(=O)C(NC(=O)C(CC(C)C)NC)C(O)c5ccc(c(Cl)c5)O4)c4ccc(O)c(c4)-c4c(O)cc(O)cc4C(C(=O)O)NC3=O)OC(CO)C(O)C2O)OC(C)C1O (centres unmarked)", 2),
    ("CCCCCCCCCC(=O)NC1(C)CC(OC2C(Oc3c4cc5cc3Oc3ccc(cc3Cl)C(O)C(NC(=O)C(CC(C)C)N(C)C(=O)CCCCCCCCC)C(=O)NC(CC(N)=O)C(=O)NC5C(=O)NC3C(=O)NC(C(=O)NC(C(=O)O)c5cc(O)cc(O)c5-c5cc3ccc5O)C(O)c3ccc(c(Cl)c3)O4)OC(CO)C(O)C2O)OC(C)C1O (centres unmarked)", 4),
    ("CCCCCCCCCCCC(=O)NC1(C)CC(OC2C(Oc3c4cc5cc3Oc3ccc(cc3Cl)C(O)C3NC(=O)C(NC(=O)C5NC(=O)C(CC(N)=O)NC(=O)C(NC(=O)C(CC(C)C)NC)C(O)c5ccc(c(Cl)c5)O4)c4ccc(O)c(c4)-c4c(O)cc(O)cc4C(C(=O)O)NC3=O)OC(CO)C(O)C2O)OC(C)C1O (centres unmarked)", 0.5),
    ("CCCCCCCCCCCC(=O)N(C)C(CC(C)C)C(=O)NC1C(=O)NC(CC(N)=O)C(=O)NC2C(=O)NC3C(=O)NC(C(=O)NC(C(=O)O)c4cc(O)cc(O)c4-c4cc3ccc4O)C(O)c3ccc(c(Cl)c3)Oc3cc2cc(c3OC2OC(CO)C(O)C(O)C2OC2CC(C)(N)C(O)C(C)O2)Oc2ccc(cc2Cl)C1O (centres unmarked)", 8),
]

Alright, here's another molecule for you.
Lookup result for CNC(CC(C)C)C(=O)NC1C(=O)NC(CC(N)=O)C(=O)NC2C(=O)NC3C(=O)NC(C(=O)NC(C(=O)O)c4cc(O)cc(O)c4-c4cc3ccc4O)C(O)c3ccc(c(Cl)c3)Oc3cc2cc(c3OC2OC(CO)C(O)C(O)C2OC2CC(C)(NC(=O)CCCCCBr)C(O)C(C)O2)Oc2ccc(cc2Cl)C1O (centres unmarked) ; measured MIC: 4

====

System: Staphylococcus epidermidis EPI1
Details: agar dilution
RECORDED_ENDPOINT: MIC (µg/mL)
Write the value in µg/mL as a bare number.

# MOLECULE, UNITS_LABEL, MIC
rows = [
    ("CNC(CC(C)C)C(=O)NC1C(=O)NC(CC(N)=O)C(=O)NC2C(=O)NC3C(=O)NC(C(=O)NC(C(=O)O)c4cc(O)cc(O)c4-c4cc3ccc4O)C(O)c3ccc(c(Cl)c3)Oc3cc2cc(c3OC2OC(CO)C(O)C(O)C2OC2CC(C)(NC(=O)C(N)C(C)C)C(O)C(C)O2)Oc2ccc(cc2Cl)C1O (stereo not drawn)", "µg/mL", 32),
    ("C=CCCCCCCCCC(=O)NC1(C)CC(OC2C(Oc3c4cc5cc3Oc3ccc(cc3Cl)C(O)C(NC(=O)C(CC(C)C)N(C)C(=O)CCCCCCCCC=C)C(=O)NC(CC(N)=O)C(=O)NC5C(=O)NC3C(=O)NC(C(=O)NC(C(=O)O)c5cc(O)cc(O)c5-c5cc3ccc5O)C(O)c3ccc(c(Cl)c3)O4)OC(CO)C(O)C2O)OC(C)C1O (stereo not drawn)", "µg/mL", 64),
]

Alright, here's another molecule for you.
Lookup result for CCCCCCCCCC(=O)NC1(C)CC(OC2C(Oc3c4cc5cc3Oc3ccc(cc3Cl)C(O)C3NC(=O)C(NC(=O)C5NC(=O)C(CC(N)=O)NC(=O)C(NC(=O)C(CC(C)C)NC)C(O)c5ccc(c(Cl)c5)O4)c4ccc(O)c(c4)-c4c(O)cc(O)cc4C(C(=O)O)NC3=O)OC(CO)C(O)C2O)OC(C)C1O (stereo not drawn) ; measured MIC: 2

====

System: Streptococcus faecium ATCC 9790
Settings: agar dilution
RECORDED_ENDPOINT: MIC
Field note: include the unit after the figure.

# MOLECULE, RECORDED_ENDPOINT, ASSAY_VALUE
rows = [
    ("CCCC(=O)NC1(C)CC(OC2C(Oc3c4cc5cc3Oc3ccc(cc3Cl)C(O)C3NC(=O)C(NC(=O)C5NC(=O)C(CC(N)=O)NC(=O)C(NC(=O)C(CC(C)C)NC)C(O)c5ccc(c(Cl)c5)O4)c4ccc(O)c(c4)-c4c(O)cc(O)cc4C(C(=O)O)NC3=O)OC(CO)C(O)C2O)OC(C)C1O (centres unmarked) [Compound 1, N^van --(1-oxo-n-butyl)vancomycin]", "MIC", "2 µg/mL"),
]

Alright, here's another molecule for you.
Lookup result for CCCCCC(=O)NC1(C)CC(OC2C(Oc3c4cc5cc3Oc3ccc(cc3Cl)C(O)C3NC(=O)C(NC(=O)C5NC(=O)C(CC(N)=O)NC(=O)C(NC(=O)C(CC(C)C)NC)C(O)c5ccc(c(Cl)c5)O4)c4ccc(O)c(c4)-c4c(O)cc(O)cc4C(C(=O)O)NC3=O)OC(CO)C(O)C2O)OC(C)C1O (centres unmarked) [Compound 2, N^van --(1-oxo-n-hexyl)vancomycin] ; measured MIC: 4 µg/mL
